activation at 1 µM values for the molecules below.
# System: mouse primary DRG neurons
# assay text: Neurite outgrowth assay of DRG neurons (image-based HCS) against paclitaxel-induced neurotoxicity
# Type: cell-based
# conditions: Mus musculus, DRG neuron, supplementary CSV; test compound 1000 nM; read-out: A-B (A: neurite outgrowth (% of control) of test compound (1000 nM) + paclitaxel (50 nM); B: of paclitaxel (50 nM))

{"molecule": "CCOP(=O)(CCN1CCC(Nc2cc(N3CCOCC3)nc(NCc3cn(CCC(C)O)nn3)n2)CC1)OCC (centres unmarked) [CN014]", "activation at 1 µM / %": 9}
{"molecule": "O=P(O)(O)CCN1CCC(Nc2cc(N3CCOCC3)nc(NCc3cn(CCCO)nn3)n2)CC1 [CN016]", "activation at 1 µM / %": 21}
{"molecule": "CC(C)(O)CCn1cc(CNc2nc(NC3CCN(CCP(=O)(O)O)CC3)cc(N3CCOCC3)n2)nn1 [CN027]", "activation at 1 µM / %": 5}
{"molecule": "O=P(O)(O)CCN1CCC(Nc2cc(N3CCOCC3)nc(NCc3ccc(CCO)cc3)n2)CC1 [CN019]", "activation at 1 µM / %": -2}
{"molecule": "COC(=O)CCN1CCC(Nc2cc(N3CCOCC3)nc(NCCCCCCO)n2)CC1 [CN017]", "activation at 1 µM / %": 1}
{"molecule": "O=C(CCNC(=O)C1(O)CC(O)C(O)C(O)C1)N1CCC(Nc2cc(N3CCOCC3)nc(NCc3cn(CCCNCCO)nn3)n2)CC1 (centres unmarked) [CN007]", "activation at 1 µM / %": 7}
{"molecule": "NCCCn1cc(CNc2nc(NC3CCN(C(=O)CCNC(=O)C4(O)CC(O)C(O)C(O)C4)CC3)cc(N3CCOCC3)n2)nn1 (centres unmarked) [CN006]", "activation at 1 µM / %": 4}
{"molecule": "O=P(O)(O)CCN1CCC(Nc2cc(N3CCS(=O)(=O)CC3)nc(NCc3cn(CCCO)nn3)n2)CC1 [CN024]", "activation at 1 µM / %": 7}

---

# Test system: primary cortical neurons
# assay text: Neurite outgrowth assay of primary cortical neurons (image-based HCS) against paclitaxel-induced neurotoxicity
# Assay type: cell-based, mouse
# conditions: Mus musculus, Primary cortical neuron; test compound 10 nM + paclitaxel 1 μM; mean ± SE; read-out: C: Neurite outgrowth (% of control) of test compound (10 nM) + paclitaxel (1 μM)
List of activity at 0.01 µM values.

{"structure smiles string": "Cc1ccc(S)c(Nc2cc(N)nc(N)n2)n1", "activity at 0.01 µM (%)": 60}
{"structure smiles string": "CC(C)(C)c1ccc(C(=O)NNc2cc(N3CCCCC3)nc(N3CCCCC3)n2)cc1", "activity at 0.01 µM (%)": 89}
{"structure smiles string": "COc1ccccc1/C=N/Nc1cc(N2CCCCC2)nc(N2CCCCC2)n1", "activity at 0.01 µM (%)": 91}
{"structure smiles string": "Oc1cccc(/C=N/Nc2cc(N3CCCCC3)nc(N3CCCCC3)n2)c1", "activity at 0.01 µM (%)": 95}
{"structure smiles string": "CN(C)c1cc(N/N=C/c2cccc([N+](=O)[O-])c2)nc(N(C)C)n1", "activity at 0.01 µM (%)": 71}

Cited source for all entries: paper PMC8958505
